- Test system: T-47D breast
- Method: NCI tumour cell line growth inhibition, 48 h
Classify as follows. Reported TGI greater than or equal to 20 µM: Criterion met. Reported TGI below: Criterion not met.

# Compound, Study target, Classification
data = [
    ("COc1ccc(C(C#N)=C2C=CC(=NO)C=C2)cc1", "T-47D breast", "Criterion not met"),
    ("CSc1c2c(C)n[nH]c2nn1-c1ccccc1", "T-47D breast", "Criterion met"),
    ("COc1ccc(N2C(=O)/C(=C/C(Cl)=C/c3ccc([N+](=O)[O-])cc3)SC2=S)cc1", "T-47D breast", "Criterion met"),
    ("Cc1c(NC(=O)CCl)c(=O)oc2c(C)c3occc(=O)c3cc12", "T-47D breast", "Criterion met"),
    ("O=C1Nc2ccccc2/C1=C\\c1cccc(/C=C2/C(=O)Nc3ccccc32)n1", "T-47D breast", "Criterion not met"),
    ("CCCCC[C@H]1CC=C2C(=O)C=C[C@@H]2CC=CCCCC(=O)O[C@@H](CCCCC)CC=C2C(=O)C=C[C@@H]2CC=CCCCC(=O)O[C@@H](CCCCC)CC=C2C(=O)C=C[C@@H]2CC=CCCCC(=O)O1", "T-47D breast", "Criterion not met"),
    ("COC1(OC)C2(Cl)C(Cl)=C(Cl)C1(Cl)C1c3ccc(C(C)=O)c4cccc(c34)C12 (stereo unspecified)", "T-47D breast", "Criterion met"),
    ("Cc1ccc2n(c1)cc(-c1ccc(/C=N/NC(=N)N/N=C/c3ccc(-c4cn5cc(C)ccc5[n+]4C)cc3)cc1)[n+]2C", "T-47D breast", "Criterion met"),
    ("COc1cc(NS(C)(=O)=O)ccc1NCc1cnc2ccc3[nH]cccc3c12", "T-47D breast", "Criterion met"),
    ("N/C(=N\\S(=O)(=O)c1ccc(-c2ccccn2)s1)Nc1ccc(Cl)cc1", "T-47D breast", "Criterion met"),
    ("COCCOC(C)C(=O)C(O)S(=O)(=O)O (stereo unspecified)", "T-47D breast", "Criterion met"),
    ("CCCc1n[nH]c(=O)n1N1C(=O)C=CC1=O", "T-47D breast", "Criterion met"),
    ("COc1cc2c3c(n(CCCCNC(=O)OC(C)(C)C)c(=O)c2cc1OC)-c1cc2c(cc1C3=O)OCO2", "T-47D breast", "Criterion met"),
    ("Cc1ccc(-c2c(C#N)[n+](=O)c3cc(F)c(F)cc3n2[O-])cc1", "T-47D breast", "Criterion met"),
    ("c1cc(CN2CCCNCCNCCCNCC2)ccc1CN1CCCNCCNCCCNCC1", "T-47D breast", "Criterion met"),
    ("Cc1c(N)nc([C@H](CC(N)=O)NC[C@H](N)C(N)=O)nc1C(=O)N[C@H](C(=O)N[C@H](C)[C@@H](O)CC(=O)N[C@H](C(=O)NC(O[C@@H]1O[C@@H](C)[C@@H](N)[C@@H](O)[C@H]1O)C(O)c1nc(-c2nc(C(=O)NCCCCN)cs2)cs1)[C@@H](C)O)[C@@H](O[C@@H]1O[C@@H](CO)[C@@H](O)[C@H](O)[C@@H]1O[C@H]1O[C@H](CO)[C@@H](O)[C@H](OC(N)=O)[C@@H]1O)c1c[nH]cn1 (stereo partly specified)", "T-47D breast", "Criterion met"),
    ("O=C1NC(=O)[C@@]2(CC[C@@H](O)C2)c2ccncc21", "T-47D breast", "Criterion met"),
    ("Cn1c(=O)c2c(nc3n2CCC(=O)N3CCCCl)n(C)c1=O", "T-47D breast", "Criterion met"),
    ("CCN(CC)CCCOc1ccc2ncnc(Nc3ccc(Oc4cccc(C(F)(F)F)c4)c(Cl)c3)c2c1", "T-47D breast", "Criterion not met"),
    ("C=CCOC(=O)c1c(C)n([O-])c2cc(Cl)c(Cl)cc2[n+]1=O", "T-47D breast", "Criterion met"),
    ("C=C1C(=O)O[C@H]2[C@H]1CC/C(Cn1cc(Cc3c[nH]c4ccccc34)nn1)=C\\CC[C@@]1(C)O[C@@H]21", "T-47D breast", "Criterion not met"),
    ("CC1(C)Oc2ccc3c(=O)cc(-c4cccs4)oc3c2C1C(=O)O (stereo unspecified)", "T-47D breast", "Criterion met"),
    ("c1ccc2cc(Cn3cc[n+](Cc4ccc5ccccc5c4)c3)ccc2c1", "T-47D breast", "Criterion not met"),
    ("Nc1ncn(C2OC(COP(=O)(O)O)C(O)C2O)c(=O)n1 (stereo unspecified)", "T-47D breast", "Criterion met"),
    ("COc1ccc(OC)c(NC(=O)c2cccc(NC3=C(Cl)C(=O)N(Cc4ccccc4)C3=O)c2)c1", "T-47D breast", "Criterion met"),
    ("CCn1c(-c2ccc(OC)cc2)nc2c1C(=O)c1ccccc1C2=O", "T-47D breast", "Criterion met"),
    ("CC/C=C\\C[C@H](O)C/C=C1/C(=O)C=C[C@@H]1C/C=C\\CCCC(=O)OC(C)C", "T-47D breast", "Criterion not met"),
    ("CCOc1cc(C(=O)O)c2c(ccc3ccc(OC)c(OC)c32)c1OC", "T-47D breast", "Criterion met"),
    ("O=P(O)(O)OCC1OC(n2cnc3c(NCc4ccco4)ncnc32)C(O)C1O (stereo unspecified)", "T-47D breast", "Criterion not met"),
    ("COc1ccc(OC)c(NC2=NCCO2)c1", "T-47D breast", "Criterion met"),
    ("Nc1ncnc2c1ncn2C1OC(CO)C(O)C1NS(=O)(=O)c1ccccc1 (stereo unspecified)", "T-47D breast", "Criterion met"),
    ("C/C(=N/NC(=S)Nc1cccc(Cl)c1)c1ccccn1", "T-47D breast", "Criterion not met"),
    ("CCN(CC)CCC(=O)OC1C(C)=CC(C)C(=O)CC(C(C)CC2CCC(O)C(OC)C2)OC(=O)C2CCCCN2C(=O)C(=O)[C@@]2(O)OC(CCC2C)CC(OC)\\C(C)=C/C=C/C=C/C(C)CC(C)C(=O)C1OC (stereo partly specified)", "T-47D breast", "Criterion not met"),
    ("COc1ccc(N2CN(C)CSC2=S)cc1", "T-47D breast", "Criterion met"),
    ("N#CCCN(CCC#N)c1ccc(/C=C2\\SC(=S)NC2=O)cc1", "T-47D breast", "Criterion met"),
]
